# assay-name: chemical genetic growth profiling, strain panel (AID 1159580);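 note: tested at 20 µM; growth read once vehicle control cultures reached saturation at 30 °C; lower values mean less growth of the strain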
# reported-conditions: S. cerevisiae deletion strains, growth OD, locus YHR013C, strain ard1, active compounds read low
About 2,000 (36%) of roughly 5,500 compounds were called active. Another 18% or so got no clear call; they are omitted. Some of the results follow.
// assign T if normalized growth falls strictly below 1, else F (ties count as F)

compound="COc1c2c(cc3c1OCO3)C13C=C[C@H](OC)CC1N(C2)CC3O (stereo partly specified)" assigned_category=T
compound="C[C@]12CCC3C(CC[C@H]4C[C@H](OS(=O)(=O)O)CC[C@]34C)C1CCC2=O (stereo partly specified)" assigned_category=F
compound="CC(=O)O[C@H]1CC[C@]2(C)C3CC(=O)[C@]4(C)C(C(C)=O)=CCC4C3CC[C@H]2C1 (stereo partly specified)" assigned_category=T
compound=O=C(NC1CCCCC1)NC1CCCCC1 assigned_category=T
